test system: non-tumor-bearing immunocompetent FVB mice; test: Biodistribution of lanthanide chloride salts LnCl3 (multiplexed ICP-MS); type: in vivo; conditions: 24 h p.i., estimated ratios (organ <0.5% ID/g)
Marks after values point to notes of the source that are not given here.
ATTRIBUTE_MEASURED: Organ ratios: Blood-to-bone

Sample [Cl][Gd]([Cl])[Cl] [[^157Gd]GdCl3] , system: non-tumor-bearing immunocompetent FVB mice. Its Organ ratios: Blood-to-bone is <0.03^*

Sample [Cl][Lu]([Cl])[Cl] [[^175Lu]LuCl3] , system: non-tumor-bearing immunocompetent FVB mice. Its Organ ratios: Blood-to-bone is <0.02^*

Sample [Cl][Tb]([Cl])[Cl] [[^159Tb]TbCl3] , system: non-tumor-bearing immunocompetent FVB mice. Its Organ ratios: Blood-to-bone is <0.04^*

Sample [Cl-].[Cl-].[Cl-].[Eu+3] [[^153Eu]EuCl3] , system: non-tumor-bearing immunocompetent FVB mice. Its Organ ratios: Blood-to-bone is <0.04^*
